- tested target: MOPr (Homo sapiens, UniProt P35372)
- Sequence (P35372 whole entry): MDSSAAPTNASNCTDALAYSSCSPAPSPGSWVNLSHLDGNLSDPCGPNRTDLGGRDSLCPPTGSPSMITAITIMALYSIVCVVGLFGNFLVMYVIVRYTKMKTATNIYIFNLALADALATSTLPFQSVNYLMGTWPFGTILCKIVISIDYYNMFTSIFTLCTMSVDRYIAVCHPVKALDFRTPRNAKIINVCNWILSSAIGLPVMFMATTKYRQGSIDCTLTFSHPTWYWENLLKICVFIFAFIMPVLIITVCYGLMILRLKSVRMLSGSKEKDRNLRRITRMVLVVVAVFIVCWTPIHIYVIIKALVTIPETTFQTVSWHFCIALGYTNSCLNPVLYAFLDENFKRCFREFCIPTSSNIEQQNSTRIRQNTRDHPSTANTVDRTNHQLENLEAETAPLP
- procedure summary: [35S]GTPγS coupling, MOPr-CHO membranes
pEC50: −log10 of the molar value.
Decide by pEC50: equal to or exceeding 7 means 1.0, less means 0.0.

>  <compound>
CN1CC[C@]23c4c5ccc(O)c4O[C@H]2C(=O)/C(=C/c2ccc(O)cc2)C[C@@]3(O)[C@H]1C5 [Compound 11]

>  <tested target>
MOPr (Homo sapiens, UniProt P35372)

>  <class name>
0.0

$$$$
>  <compound>
CN1CC[C@]23c4c5ccc(O)c4O[C@H]2C(=O)/C(=C/c2cccc4ccccc24)C[C@@]3(O)[C@H]1C5 [Compound 13]

>  <tested target>
MOPr (Homo sapiens, UniProt P35372)

>  <class name>
0.0

$$$$
>  <compound>
CN1CC[C@]23c4c5ccc(O)c4O[C@H]2C(=O)/C(=C/c2ccc(Cl)cc2)C[C@@]3(O)[C@H]1C5 [Compound 8]

>  <tested target>
MOPr (Homo sapiens, UniProt P35372)

>  <class name>
0.0

$$$$
>  <compound>
CN1CC[C@]23c4c5ccc(O)c4O[C@H]2C(=O)/C(=C/c2ccc4ccccc4c2)C[C@@]3(O)[C@H]1C5 [Compound 14]

>  <tested target>
MOPr (Homo sapiens, UniProt P35372)

>  <class name>
1.0

$$$$
>  <compound>
COc1ccc(/C=C2\C[C@@]3(O)[C@H]4Cc5ccc(O)c6c5[C@@]3(CCN4C)[C@@H](O6)C2=O)cc1 [Compound 10]

>  <tested target>
MOPr (Homo sapiens, UniProt P35372)

>  <class name>
0.0

$$$$
>  <compound>
CN1CC[C@]23c4c5ccc(O)c4O[C@H]2C(=O)/C(=C/c2ccc([N+](=O)[O-])cc2)C[C@@]3(O)[C@H]1C5 [Compound 12, Nitro-benzylideneoxymorphone]

>  <tested target>
MOPr (Homo sapiens, UniProt P35372)

>  <class name>
1.0

$$$$

Task item: Determine whether measured pEC50 meets or exceeds 7 for CN1CC[C@]23c4c5ccc(O)c4O[C@H]2C(=O)/C(=C/c2ccc(Br)cc2)C[C@@]3(O)[C@H]1C5 [Compound 9]
Reply: 0.0
